Biological target: T1, GPC3 (UniProt P51654 25-559, limits assumed)
T1 construct: also called antigen GPC3; Glypican 3
T1 sequence (P51654 25-559 limits assumed): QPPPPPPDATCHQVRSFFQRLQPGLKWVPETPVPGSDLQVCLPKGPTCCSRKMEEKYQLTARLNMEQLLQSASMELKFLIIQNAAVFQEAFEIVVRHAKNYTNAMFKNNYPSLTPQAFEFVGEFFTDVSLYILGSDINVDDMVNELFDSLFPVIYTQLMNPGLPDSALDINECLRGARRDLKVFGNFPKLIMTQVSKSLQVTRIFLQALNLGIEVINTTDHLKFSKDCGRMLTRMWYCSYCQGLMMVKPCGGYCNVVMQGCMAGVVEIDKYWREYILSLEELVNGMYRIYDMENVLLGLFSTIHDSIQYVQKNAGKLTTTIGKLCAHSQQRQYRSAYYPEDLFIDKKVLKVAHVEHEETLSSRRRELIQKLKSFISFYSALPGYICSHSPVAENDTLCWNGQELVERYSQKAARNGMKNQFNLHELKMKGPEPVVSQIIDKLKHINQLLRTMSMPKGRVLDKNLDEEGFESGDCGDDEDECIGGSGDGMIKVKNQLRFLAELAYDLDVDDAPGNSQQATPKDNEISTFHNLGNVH
Assay: SPR (Biacore T200); scFv-Fc captured by anti-human Fc pAb, GPC3 10-320 nM in flow
Description: The humanized VLs (VL1 and VL1.M2) were connected to humanized VHs (VH2, VH2.M1, VH2.M5 and VH2.M6) with a (G4S)₃ linker (SEQ ID NO: 10) to construct humanized scFvs. These scFvs were expressed with a C-terminal Fc tag in HEK293 cells. The crude scFv proteins secreted to the cell culture supernatant were used for binding affinity determination using surface plasmon resonance (SPR) on a Biacore T200 machine. […]
measured_metric: koff

binder: VL1.M2-VH2 humanized scFv (scFv, not shown: a dimerising Fc or GST, Crude scFv with Fc tag from HEK293 supernatant) scFv: DIVMTQTPLSLSVTPGQPASISCRSSQSLVHSNGNTYLHWYLQKPGQSPQLLIYKVSSRFSGVPDRFSGSGSGTDFTLKISRVEAEDVGVYYCSQNTHVPPTFGQGTKVEIKGGGGSGGGGSGGGGSQVQLVQSGAEVKKPGASVKVSCKASGYTFTDYEMHWVRQAPGQGLEWMGALDPKTGDTAYSQKFKGRVTLTADTSTSTVYMELSSLRSEDTAVYYCTRFYSYTYWGQGTLVTVSS
koff: 0.00035 s⁻¹
//
binder: VL1.M2-VH2.M6 humanized scFv (scFv, not shown: a dimerising Fc or GST, Crude scFv with Fc tag from HEK293 supernatant) scFv: DIVMTQTPLSLSVTPGQPASISCRSSQSLVHSNGNTYLHWYLQKPGQSPQLLIYKVSSRFSGVPDRFSGSGSGTDFTLKISRVEAEDVGVYYCSQNTHVPPTFGQGTKVEIKGGGGSGGGGSGGGGSQVQLVQSGAEVKKPGASVKVSCKASGYTFTSYEMHWVRQAPGQGLEWMGALDPKTGDTAYSQKFQGRVTLTADTSTSTVYMELSSLRSEDTAVYYCTRFYSYTYWGQGTLVTVSS
koff: 0.0005 s⁻¹
//
binder: VL1-VH2.M1 humanized scFv (scFv, not shown: a dimerising Fc or GST, Crude scFv with Fc tag from HEK293 supernatant) scFv: DIVMTQTPLSLSVTPGQPASISCRSSQSLVHSNGNTYLHWYLQKPGQSPQLLIYKVSNRFSGVPDRFSGSGSGTDFTLKISRVEAEDVGVYYCSQNTHVPPTFGQGTKVEIKGGGGSGGGGSGGGGSQVQLVQSGAEVKKPGASVKVSCKASGYTFTSYEMHWVRQAPGQGLEWMGALDPKTGDTAYSQKFKGRVTLTADTSTSTVYMELSSLRSEDTAVYYCTRFYSYTYWGQGTLVTVSS
koff: 0.00036 s⁻¹

Next item in the queue.
**Query** Please supply the value of reported koff for the item VL1.M2-VH2.M5 humanized scFv (scFv, not shown: a dimerising Fc or GST, Crude scFv with Fc tag from HEK293 supernatant) scFv: DIVMTQTPLSLSVTPGQPASISCRSSQSLVHSNGNTYLHWYLQKPGQSPQLLIYKVSSRFSGVPDRFSGSGSGTDFTLKISRVEAEDVGVYYCSQNTHVPPTFGQGTKVEIKGGGGSGGGGSGGGGSQVQLVQSGAEVKKPGASVKVSCKASGYTFTDYEMHWVRQAPGQGLEWMGALDPKTGDTAYSQKFQGRVTLTADTSTSTVYMELSSLRSEDTAVYYCTRFYSYTYWGQGTLVTVSS
**Result** 0.00037 s⁻¹
